What follows is a collection of pKd values obtained with rhACE2 (Homo sapiens, UniProt Q9BYF1).
Sequence (Q9BYF1 18-805): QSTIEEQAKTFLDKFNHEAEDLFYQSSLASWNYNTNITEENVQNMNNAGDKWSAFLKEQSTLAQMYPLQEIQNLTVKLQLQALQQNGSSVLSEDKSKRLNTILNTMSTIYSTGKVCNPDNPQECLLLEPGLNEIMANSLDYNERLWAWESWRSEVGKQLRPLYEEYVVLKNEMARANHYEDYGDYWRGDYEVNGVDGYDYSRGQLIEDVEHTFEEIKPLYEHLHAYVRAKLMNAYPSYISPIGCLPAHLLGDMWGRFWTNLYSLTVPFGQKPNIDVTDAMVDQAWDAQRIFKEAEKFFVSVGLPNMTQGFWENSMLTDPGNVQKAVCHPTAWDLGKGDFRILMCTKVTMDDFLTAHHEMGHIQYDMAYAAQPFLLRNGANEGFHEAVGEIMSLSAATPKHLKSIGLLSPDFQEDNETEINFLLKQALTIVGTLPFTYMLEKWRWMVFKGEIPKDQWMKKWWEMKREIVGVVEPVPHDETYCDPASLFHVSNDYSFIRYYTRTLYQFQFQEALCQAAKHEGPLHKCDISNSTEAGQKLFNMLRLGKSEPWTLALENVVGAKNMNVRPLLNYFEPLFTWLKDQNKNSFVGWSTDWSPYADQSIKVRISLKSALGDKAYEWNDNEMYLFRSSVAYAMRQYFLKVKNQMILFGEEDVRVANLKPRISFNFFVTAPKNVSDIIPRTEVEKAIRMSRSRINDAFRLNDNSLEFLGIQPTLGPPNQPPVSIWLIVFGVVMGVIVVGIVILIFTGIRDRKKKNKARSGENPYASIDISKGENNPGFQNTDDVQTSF
pKd: −log10 of the molar value.

COMPOUND: COCC12CCC(OC)C34C5CC6(O)C(OC)C(O)C(O)(C5C6OC(=O)c5ccccc5)C(C(OC)C13)C4N(C)C2 (stereo not drawn)
pKd: 3.51

COMPOUND: COCC12CN(C)C3C4C(OC)C1C3(C(OC)CC2O)C1CC2(O)C(OC)C(O)C4(O)C1C2OC(=O)c1ccccc1 (stereo not drawn)
pKd: 4.69

COMPOUND: CCN1CC2(COC)C(O)CC(OC)C34C5CC6(O)C(OC)C(O)C(O)(C5C6OC(=O)c5ccccc5)C(C(OC)C23)C14 (stereo not drawn)
pKd: 5.51
